Target: Induced myeloid leukemia cell differentiation protein Mcl-1 (Homo sapiens) (UniProt Q07820)
Sequence (Q07820 whole entry, looked up): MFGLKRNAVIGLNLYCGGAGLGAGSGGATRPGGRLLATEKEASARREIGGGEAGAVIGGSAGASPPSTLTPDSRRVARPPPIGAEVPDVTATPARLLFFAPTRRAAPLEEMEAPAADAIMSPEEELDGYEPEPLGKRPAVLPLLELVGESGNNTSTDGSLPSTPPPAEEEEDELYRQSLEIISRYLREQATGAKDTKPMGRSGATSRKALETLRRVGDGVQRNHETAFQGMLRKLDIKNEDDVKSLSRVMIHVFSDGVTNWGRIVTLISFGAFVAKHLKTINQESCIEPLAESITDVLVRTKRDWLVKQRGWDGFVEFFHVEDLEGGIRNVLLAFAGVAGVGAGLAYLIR
Assay: Mcl-1/Noxa binding inhibitor potency, dose response, biochemical, TR-FRET (AID 1417)
Details: Mcl-1/Noxa peptide interaction, cell-free TR-FRET (terbium/rhodamine), 2 h; measured here: absolute IC50
Measured pIC50 values are reported for all entries that follow.
In plain terms, pIC50 is the concentration in mol/L turned into minus its base-10 logarithm.

# pIC50 (molecule: Cc1ccc(-c2nn(-c3ccccc3)cc2/C=C2\SC(=S)N(CC(=O)O)C2=O)cc1 ) is 5.33

Next:
Value of pIC50 reported for the molecule Cc1ccc(N2C(=O)NC(=O)/C(=C/c3cnc(-c4ccccc4)nc3)C2=O)cc1C is 4.79

* * *

Target: Induced myeloid leukemia cell differentiation protein Mcl-1 (Homo sapiens)
Assay: Mcl-1/Noxa binding inhibitor potency, dose response, biochemical, TR-FRET (AID 1417)
Conditions: Mcl-1/Noxa peptide interaction, cell-free TR-FRET (terbium/rhodamine), 2 h; measured here: absolute IC50
pIC50 overview
pIC50 is defined as minus the log10 of a concentration measured in mol/L.

// worked examples, pIC50 included
pIC50 recorded for this molecule, O=C(Nc1nccs1)c1cc(-c2ccco2)nc2ccccc12 , is 5.85

// recorded pIC50 for O=[N+]([O-])c1cc([N+](=O)[O-])c2cccnc2c1Oc1ccccc1O : 5.90

response.value for CCC(=O)N(CC)C1=C(O)c2ccccc2C(=O)C1=O (field: pIC50) = 6.00

Form field pIC50, entry CCOC(=O)c1sc2nc3c(SCCC(=O)O)cc(C(=O)c4cc(OC)ccc4O)cn3c(=O)c2c1C : 6.02

Next:
Consider CC(=O)Nc1sc(N/N=C\c2ccc(O)cc2)nc1-c1cccs1 . Its measured pIC50 is 5.97

Record summary for Nc1nc2c(c(=O)[nH]1)C(c1cccc3ccccc13)C1=C(N2)c2ccccc2C1=O (stereo not given) : reported pIC50 = 5.38

* * *

Target: Induced myeloid leukemia cell differentiation protein Mcl-1 (Homo sapiens) (UniProt Q07820)
Assay: Mcl-1/Noxa binding inhibitor potency, dose response, biochemical, TR-FRET (AID 1417)
Settings: Mcl-1/Noxa peptide interaction, cell-free TR-FRET (terbium/rhodamine), 2 h; measured here: absolute IC50
measured parameter: pIC50
# reply with the number alone; pIC50 is -log10 of concentration in mol/L

The cases that follow already have their pIC50 on record.
The compound listed as Nc1scc2c(C(=O)N/N=C/c3ccc(Cl)cc3)nn(-c3ccccc3)c(=O)c12 has a reported pIC50 of 5.88

// sample Cc1ccc(-c2cc(C(=O)O)c3cc(Br)ccc3n2)o1 , its pIC50 was 5.33

***
Short answer for O=C(NCc1ccccc1)c1ccc2nc(-c3ccco3)c(-c3ccco3)nc2c1 : pIC50 was 5.64

* * *

Reported IC50 values follow for various molecules
Target: Induced myeloid leukemia cell differentiation protein Mcl-1 (Homo sapiens) (UniProt Q07820)
Assay: Mcl-1/Noxa binding inhibitor potency, dose response, biochemical, TR-FRET (AID 1417)
Details: Mcl-1/Noxa peptide interaction, cell-free TR-FRET (terbium/rhodamine), 2 h; measured here: absolute IC50
Give the quantity in µM, number only.

Per the records, this molecule ( COc1ccc(/C=C2/SC(=S)N(c3ccc(S(=O)(=O)Nc4nccs4)cc3)C2=O)cc1 ) has IC50 equal to 0.999

Given item CCOc1c(Cl)cc(CNc2ccc(N3CCCC3)cc2)cc1OC , the value recorded as its IC50 is 1.58

Entry Nc1ccc2nc(-c3ccc(Cl)cc3)[nH]c2c1 ; IC50 = 30.5

Value of measured IC50 for the entry O=C(N/N=C/c1ccco1)c1cccc(N2Cc3ccccc3C2)c1 : 3.5

Switching to the query record.
Reported IC50 ( CCN(CC)S(=O)(=O)c1ccc(N2CCOCC2)c(NC(=O)c2c3c(nc4ccccc24)CCC3)c1 ) = 5.73
